- Target Desc: MMP 7 (Homo sapiens)
- Construct: recombinant human MMP-1-10, 12, 13 and 14 catalytic domains
- Sequence (P09237 95-267): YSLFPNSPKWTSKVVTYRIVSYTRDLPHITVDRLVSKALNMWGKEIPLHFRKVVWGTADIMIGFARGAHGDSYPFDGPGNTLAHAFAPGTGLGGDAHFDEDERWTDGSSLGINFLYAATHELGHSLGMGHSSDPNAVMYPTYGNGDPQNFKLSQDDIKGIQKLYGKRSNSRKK
- Procedure Details: MMP Inhibitor Fluorimetric Profiling kit, MMP 7
- Conditions: ne = no effect; read-out: MMP 7 inhibition IC50
pIC50: −log10 of the molar value. Structures can show the parent of a compound that is named as a salt.
Reported Endpoint: pIC50

Task: Which pIC50 is reported for this compound? CN1CCN(Cc2[se]c3c(ccc4cc(C(=O)NO)c(=O)oc43)c2Br)CC1 [Compound I-1, hydrochloride]
Result: < 4.70

====

- Target Desc: MMP 1 (Homo sapiens, UniProt P03956)
- Construct: recombinant human MMP-1-10, 12, 13 and 14 catalytic domains; purchased Biornol, USA
- Sequence (P03956 98-276 limits assumed): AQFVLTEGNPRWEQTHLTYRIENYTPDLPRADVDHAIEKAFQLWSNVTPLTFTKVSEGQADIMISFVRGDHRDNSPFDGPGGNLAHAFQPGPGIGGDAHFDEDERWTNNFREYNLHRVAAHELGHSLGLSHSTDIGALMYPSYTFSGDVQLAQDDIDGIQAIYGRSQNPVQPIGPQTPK
- Procedure Details: MMP Inhibitor Fluorimetric Profiling kit, MMP 1
- Type: biochemical
- Conditions: ne = no effect; read-out: MMP 1 inhibition IC50
Structures can show the parent of a compound that is named as a salt.
Reported Endpoint: pIC50
Note on pIC50: it is the negative log10 of concentration, concentration in mol/L.

* O=C(NO)c1cc2ccc3c(Br)c(CN4CCCNCC4)[se]c3c2oc1=O [Compound I-4, hydrochloride] | 5.28
* O=C(NO)c1cc2ccc3c(Br)c(CN4CCNCC4)[se]c3c2oc1=O [Compound I-2, hydrochloride] | 5.23

Task: Which pIC50 is reported for this molecule? O=C(NO)c1cc2ccc3c(Br)c(CCN4CCNCC4)[se]c3c2oc1=O [Compound I-3, hydrochloride]
Result: 5.18
